This collection of values is drawn from patent US9376418B2.

# target: recombinant human GST-SYK (Homo sapiens, UniProt P43405)
# Construct: purchased Carna Biosciences 08-176
# run.description: Homogeneous Time-Resolved Fluorescence (HTRF) assay for the recombinant human Syk enzyme
# Format: biochemical
# test.parameters: HTRF assay, recombinant human GST-SYK; IC50 given as class symbols; read-out: rhSYK Activity
IC50 values, listed per item

Record excerpt, results attached:
Cc1cc(Nc2nccc(C(F)(F)F)n2)cc(-c2ccc(CCc3nnn[nH]3)nc2)c1 [Example 13.4]    < 100 nM
COc1ccnc(Nc2cc(C)cc(-c3ccc([C@]4(O)CC[C@H](C(=O)O)CC4)nc3)c2)n1 [Example 9.36]    < 100 nM
Cc1cc(Nc2nccc(C(F)(F)F)n2)cc(-c2ccc(N[C@@H](Cc3ccc(O)cc3)C(=O)O)nc2)c1 [Example 7.98]    < 100 nM
Cc1cc(Nc2nccc(C(F)(F)F)n2)cc(-c2ccc(NCc3cnn(C)c3)nc2)c1 [Example 7.20]    100 to 1000 nM
Cc1cc(Nc2nccc(C(F)(F)F)n2)cc(-c2ccc(N(C)[C@@H](C)C(=O)O)nc2)c1 [Example 7.104]    < 100 nM

Could you now look at the following molecule, please?
Observed IC50, recombinant human GST-SYK (Homo sapiens, UniProt P43405), COc1ccnc(Nc2cc(C)cc(-c3ccnc(N)c3)c2)n1 [Example 4.1] : < 100 nM
